// data source = patent US8642626B2

Molecular target: rat metabotropic glutamate receptor (mGlu2) (Rattus norvegicus)
Construct: expressed in transfected cells
Sequence (P31421 19-872): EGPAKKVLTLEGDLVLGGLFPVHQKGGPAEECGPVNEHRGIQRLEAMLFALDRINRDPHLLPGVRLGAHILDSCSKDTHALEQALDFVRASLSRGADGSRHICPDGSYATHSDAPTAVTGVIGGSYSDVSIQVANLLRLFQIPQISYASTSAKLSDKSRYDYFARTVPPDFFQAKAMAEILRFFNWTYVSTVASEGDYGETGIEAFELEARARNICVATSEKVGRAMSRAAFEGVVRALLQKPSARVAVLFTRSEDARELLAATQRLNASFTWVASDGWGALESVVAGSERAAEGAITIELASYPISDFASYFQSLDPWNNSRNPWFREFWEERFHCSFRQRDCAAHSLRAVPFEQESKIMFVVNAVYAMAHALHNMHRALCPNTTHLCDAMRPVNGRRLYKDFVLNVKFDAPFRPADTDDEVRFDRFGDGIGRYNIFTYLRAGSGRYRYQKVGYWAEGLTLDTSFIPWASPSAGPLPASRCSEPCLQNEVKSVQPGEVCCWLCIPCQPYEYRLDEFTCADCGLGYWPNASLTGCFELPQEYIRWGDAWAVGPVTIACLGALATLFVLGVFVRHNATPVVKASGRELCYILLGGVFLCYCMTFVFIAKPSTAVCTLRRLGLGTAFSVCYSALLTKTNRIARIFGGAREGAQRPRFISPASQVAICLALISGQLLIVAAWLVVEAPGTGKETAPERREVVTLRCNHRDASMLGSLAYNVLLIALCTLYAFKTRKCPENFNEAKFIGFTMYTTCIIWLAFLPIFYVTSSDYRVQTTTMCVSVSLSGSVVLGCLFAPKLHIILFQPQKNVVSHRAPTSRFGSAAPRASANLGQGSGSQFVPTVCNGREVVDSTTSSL
Assay: [35S]GTPγS binding test (1), crude membrane fraction of CHO cells stably expressing rat mGlu2
Format: biochemical
Conditions: inhibition of glutamic acid (30 μM, only compounds 1 and 40)-stimulated specific [35S]GTPγS binding, rat mGlu2 CHO membranes
Exercise: state measured IC50 for each of the molecules provided.

// recorded IC50 for CN(C)CCNS(=O)(=O)c1cccc(C#Cc2cnn(C)c2-c2ccc(C(F)(F)F)cc2)c1 [Example 1] : 158 nM

# context switch: different molecule, same IC50
// recorded IC50 for Cn1ncc(C#Cc2cccc(S(N)(=O)=O)c2)c1N1Cc2cc3ccccc3cc2C1 [Example 40] : 24.2 nM
